# assayed-system: recombinant human GR (Homo sapiens)
# Construct: purchased Panvera/Invitrogen P2812 (kit P2893)
# test-protocol: Human Glucocorticoid Receptor (GR) Assay (fluorescence polarization, Panvera/Invitrogen kit)
# Assay type: binding
# conditions-used: fluorescence polarization; GS Red tracer; 2 hours at room temperature; 100% control 10 μM Dexamethasone; read-out: Inhibition of GR binding, IC50
Could you mark each record rule met if its IC50 falls strictly under 10 nM, and rule not met if it equals or exceeds it?

{"columns": ["compound", "class-label"],
 "data": [
  ["CCC(=O)O[C@]1(C(=O)SC)CC[C@H]2[C@@H]3CCC4=Cc5c(cnn5-c5ccc(F)c(C(=O)SC)c5)C[C@]4(C)[C@H]3[C@@H](O)C[C@@]21C [Example 175]", "rule not met"],
  ["CCC(=O)O[C@]1(C(=O)SCF)CC[C@H]2[C@@H]3CCC4=Cc5c(cnn5-c5ccc(F)cc5)C[C@]4(C)[C@@]3(F)[C@@H](O)C[C@@]21C [Example 200]", "rule not met"],
  ["C[C@]12Cc3cnn(-c4ccc(F)nc4)c3C=C1CC[C@H]1[C@@H]3CC[C@](OC(=O)c4cocn4)(C(=O)SCF)[C@@]3(C)C[C@H](O)[C@@]12F [Example 210]", "rule met"],
  ["C=CCOCc1cc(-n2ncc3c2C=C2CC[C@@H]4[C@H]([C@@H](O)C[C@@]5(C)[C@H]4CC[C@]5(OC(=O)c4ccco4)C(=O)NC)[C@@]2(C)C3)ccc1F [Example 78]", "rule not met"],
  ["C[C@]12Cc3cnn(-c4ccc(F)nc4)c3C=C1CC[C@@H]1[C@@H]2[C@@H](O)C[C@@]2(C)[C@H]1CC[C@]2(OC(=O)C1CC1)C(=O)SCC#N [Example 152]", "rule met"]
]}

====

# assayed-system: recombinant human GR (Homo sapiens, UniProt P04150)
# Construct: purchased Panvera/Invitrogen P2812 (kit P2893)
# Sequence (P04150 whole entry): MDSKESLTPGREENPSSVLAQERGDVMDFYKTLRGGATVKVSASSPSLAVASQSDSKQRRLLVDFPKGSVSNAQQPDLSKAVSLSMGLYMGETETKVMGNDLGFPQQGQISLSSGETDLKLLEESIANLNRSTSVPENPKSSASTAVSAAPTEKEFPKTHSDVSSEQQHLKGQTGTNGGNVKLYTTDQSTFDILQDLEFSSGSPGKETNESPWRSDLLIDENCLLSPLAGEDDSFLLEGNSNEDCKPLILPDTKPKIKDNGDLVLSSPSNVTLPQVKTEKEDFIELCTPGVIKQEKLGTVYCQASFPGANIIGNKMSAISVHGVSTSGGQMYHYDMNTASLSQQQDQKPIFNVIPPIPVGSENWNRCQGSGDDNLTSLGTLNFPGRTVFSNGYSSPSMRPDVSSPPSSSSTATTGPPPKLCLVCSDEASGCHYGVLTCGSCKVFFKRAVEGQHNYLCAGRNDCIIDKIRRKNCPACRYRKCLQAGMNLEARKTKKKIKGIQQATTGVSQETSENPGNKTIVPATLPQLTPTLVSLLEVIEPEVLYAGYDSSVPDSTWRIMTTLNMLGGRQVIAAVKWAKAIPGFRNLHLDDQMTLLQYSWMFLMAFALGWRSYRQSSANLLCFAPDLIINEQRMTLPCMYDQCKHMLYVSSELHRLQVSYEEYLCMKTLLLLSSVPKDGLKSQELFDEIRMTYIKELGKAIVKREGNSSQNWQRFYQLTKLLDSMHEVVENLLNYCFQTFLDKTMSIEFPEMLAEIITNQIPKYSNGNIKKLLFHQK
# test-protocol: Human Glucocorticoid Receptor (GR) Assay (fluorescence polarization, Panvera/Invitrogen kit)
# Format: binding
# conditions-used: fluorescence polarization; GS Red tracer; 2 hours at room temperature; 100% control 10 μM Dexamethasone; read-out: Inhibition of GR binding, IC50
observation-type: IC50 (nM)

{"columns": ["compound", "observation-type", "measurement"],
 "data": [
  ["C[C@]12Cc3cnn(-c4ccc(F)cc4)c3C=C1CC[C@@H]1[C@@H]2[C@@H](O)C[C@@]2(C)[C@H]1CC[C@]2(OC(=O)c1ccoc1)C(=O)SCF", "IC50", 6.9],
  ["CCC(=O)O[C@]1(C(=O)SCOC)CC[C@H]2[C@@H]3CCC4=Cc5c(cnn5-c5ccc(F)nc5)C[C@]4(C)[C@H]3[C@@H](O)C[C@@]21C", "IC50", 3.1],
  ["C[C@]12Cc3cnn(-c4cccc(Br)c4)c3C=C1CC[C@@H]1[C@@H]2[C@@H](O)C[C@@]2(C)[C@H]1CC[C@]2(OC(=O)c1ccco1)C(=O)SCF", "IC50", 13],
  ["CCC(=O)O[C@]1(C(=O)SCC#N)CC[C@H]2[C@@H]3CCC4=Cc5c(cnn5-c5ccc(F)cc5)C[C@]4(C)[C@H]3[C@@H](O)C[C@@]21C", "IC50", 3.2],
  ["CCC(=O)O[C@]1(C(=O)SCCCO)CC[C@H]2[C@@H]3CCC4=Cc5c(cnn5-c5ccc(F)cc5)C[C@]4(C)[C@H]3[C@@H](O)C[C@@]21C", "IC50", 5.1]
]}
